Biological target: Protein deacetylase HDAC6 (Homo sapiens)
Sequence (Q9UBN7 whole entry): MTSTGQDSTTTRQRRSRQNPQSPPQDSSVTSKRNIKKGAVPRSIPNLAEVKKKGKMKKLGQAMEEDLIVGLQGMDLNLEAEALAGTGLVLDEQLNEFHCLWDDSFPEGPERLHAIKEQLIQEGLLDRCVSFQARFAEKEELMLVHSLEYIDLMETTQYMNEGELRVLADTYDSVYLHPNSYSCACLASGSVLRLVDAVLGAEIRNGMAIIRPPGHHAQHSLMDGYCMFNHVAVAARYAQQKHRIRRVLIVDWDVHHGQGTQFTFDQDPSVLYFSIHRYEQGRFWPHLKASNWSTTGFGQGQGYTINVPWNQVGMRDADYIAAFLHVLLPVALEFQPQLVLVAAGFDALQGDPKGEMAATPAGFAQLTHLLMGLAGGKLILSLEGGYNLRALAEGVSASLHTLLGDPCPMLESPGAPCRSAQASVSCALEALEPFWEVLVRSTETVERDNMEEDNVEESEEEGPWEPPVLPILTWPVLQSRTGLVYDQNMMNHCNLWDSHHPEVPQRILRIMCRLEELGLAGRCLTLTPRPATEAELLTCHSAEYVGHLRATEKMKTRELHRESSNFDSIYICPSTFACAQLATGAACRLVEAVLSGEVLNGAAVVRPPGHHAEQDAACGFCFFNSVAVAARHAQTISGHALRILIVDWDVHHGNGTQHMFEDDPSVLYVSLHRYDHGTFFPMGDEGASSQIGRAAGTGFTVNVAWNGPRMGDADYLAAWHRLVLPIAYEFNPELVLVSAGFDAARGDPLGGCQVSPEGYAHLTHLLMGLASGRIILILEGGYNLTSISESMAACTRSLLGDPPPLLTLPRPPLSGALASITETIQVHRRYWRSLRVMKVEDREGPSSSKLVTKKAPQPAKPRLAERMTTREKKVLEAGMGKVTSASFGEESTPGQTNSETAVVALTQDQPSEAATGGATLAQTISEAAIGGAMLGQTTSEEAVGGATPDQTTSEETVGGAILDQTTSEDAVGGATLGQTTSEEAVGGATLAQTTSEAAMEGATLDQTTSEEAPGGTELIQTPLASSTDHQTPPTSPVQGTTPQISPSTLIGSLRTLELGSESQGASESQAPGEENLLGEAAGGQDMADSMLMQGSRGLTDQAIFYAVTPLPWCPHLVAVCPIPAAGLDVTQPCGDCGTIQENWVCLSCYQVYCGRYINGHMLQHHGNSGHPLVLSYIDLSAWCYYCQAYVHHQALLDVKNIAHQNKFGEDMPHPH
Assay: Inhibition of full length recombinant N-terminal GST-tagged human HDAC6 (1 to 1215 residues) expressed in baculovirus infected insect cells incubated for 2 hrs by Multimode microplate reader analysis
test.readout: pIC50
Quick note: pIC50 means taking -log10 of the concentration in moles per liter.

Recall the recorded pIC50 for Cc1cc(C)c(CNC(=O)c2cc(-c3ccc(N4CCN(c5ncc(C(=O)NO)cn5)CC4)nc3)cc3c2cnn3C(C)C)c(=O)[nH]1 with Protein deacetylase HDAC6 (Homo sapiens) and state it. 6.15

----------
biological target: Protein deacetylase HDAC6 (Homo sapiens, UniProt Q9UBN7); assay: Inhibition of HDAC6 (unknown origin) preincubated for 5 mins followed by substrate addition and measured after 30 mins by multimode microplate reader analysis
This section presents compounds with their documented IC50 values.
I only need the number, in µM, no unit after it.

State the recorded IC50 for this entry: Cc1cc(C)c(CNC(=O)c2cc(-c3ccc(N4CCN(c5ncc(C(=O)NO)cn5)CC4)nc3)cc3c2cnn3C(C)C)c(=O)[nH]1 0.7

State the recorded IC50 for this entry: CCN(c1cc(-c2ccc(N3CCN(c4ncc(C(=O)NO)cn4)CC3)nc2)cc(C(=O)NCc2c(C)cc(C)[nH]c2=O)c1C)C1CCOCC1 2.58

Further cases:
State the recorded IC50 for this entry: Cc1cc(C)c(CNC(=O)c2cc(-c3ccc(N4CCN(CCCCCC(=O)NO)CC4)nc3)cc3c2cnn3C(C)C)c(=O)[nH]1 1.9

State the recorded IC50 for this entry: Cc1cc(C)c(CNC(=O)c2cc(-c3ccc(N4CCN(Cc5ccc(C(=O)NO)cc5)CC4)nc3)cc3c2cnn3C(C)C)c(=O)[nH]1 1.12
